- Tested on: Sialate O-acetylesterase (Homo sapiens)
- Assay remarks: blockers of sialate O-acetylesterase activity-probe labeling – biochemical, fluorescence polarization, FP-Rh probe, 1536-well HTS, primary screen (AID 1053197);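 further: 0% = plate median of compound wells and 100% = probe without SIAE protein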
- Condition info: SIAE FP-Rh probe binding, at 9.66 µM, hits give high values
The campaign covered roughly 370,000 compounds. About 2,600 (0.7%) were called active. This excerpt belongs to a sample that is enriched for actives.
Readout type: inhibition

// worked examples, inhibition included
| Compound | Tested on | Reported |
| --- | --- | --- |
| O=S(=O)(c1ccccc1)N1CCC(c2nc3ccccc3o2)CC1 | Sialate O-acetylesterase (Homo sapiens) | 6.75% (inactive) |
| O=C(N1CCOCC1)N1CC[C@H]2[C@H](CCCN2Cc2ccc(F)cc2)C1 | Sialate O-acetylesterase (Homo sapiens) | 0.67% (inactive) |

## Task Need inhibition, item `O=C1CC[C@@H](COc2ccc3[nH]cc(-c4ccccc4)c3c2-c2ccccc2)N1`
## Result 3.06% (inactive)

## Task Need inhibition, item Cc1ccc(-c2nc(C3CCCN(S(=O)(=O)c4ccc(Br)s4)C3)no2)cc1 (stereo unspecified)
## Result 3.3% (inactive)

## Task Need inhibition, item `COc1ccc(Cn2cc(CN3[C@@H](CC(C)C)COc4cc(Br)ccc4S3(=O)=O)nn2)cc1`
## Result 0.93% (inactive)

## Task Need inhibition, item `COc1cccc(CNC(=O)CNS(=O)(=O)c2ccc3nc(C)sc3c2)c1OC`
## Result 2.11% (inactive)
